Below, each entry is listed with its recorded human Plasma stability.
- ASSAY_REMARKS: Plasma Stability
- Type: in vitro ADME, human
- CONDITION_DETAILS: % remaining @ 1 h

Return reported human Plasma stability. Input compound: CC(C)C[C@H](NC(=O)OC(C)(C)C)C(=O)OCn1c(=O)c2c(ccn2COC(=O)[C@H](CC(C)C)NC(=O)OC(C)(C)C)n(CCOC(C)C)c1=S [Example 316]
37%@ 1 h

Return reported human Plasma stability. Input compound: CC(C)OCCn1c(SCOC(=O)CCCCOC(=O)CN)nc(=O)c2c1ccn2COC(=O)CCCCOC(=O)CN.O=C(O)C(F)(F)F.O=C(O)C(F)(F)F [Example 331]
1% @ 1 h

Return reported human Plasma stability. Input compound: CC(C)OCCn1c(SCOC(=O)[C@@H](NC(=O)OC(C)(C)C)C(C)C)nc(=O)c2c1ccn2COC(=O)[C@@H](NC(=O)OC(C)(C)C)C(C)C [Example 295]
81% @ 1 h

###

Below, each entry is listed with its recorded human Plasma stability.
- ASSAY_REMARKS: Plasma Stability
- Type: in vitro ADME, human
- CONDITION_DETAILS: % remaining at 1 h; human plasma, 1 μM, 37° C.
Give the number; % is assumed, so skip it.

Before answering, review these 3 worked examples.
[
  {
    "COMPOUND": "CC(C)OCCn1c(=S)[nH]c(=O)c2c1ccn2COC(=O)[C@@H]1CCCN1C(=O)OC(C)(C)C",
    "human Plasma stability [%]": 92
  },
  {
    "COMPOUND": "CC(C)OCCn1c(=S)[nH]c(=O)c2c1ccn2C(C)OC(=O)c1ccccc1 (centres unmarked)",
    "human Plasma stability [%]": 59
  },
  {
    "COMPOUND": "CC(C)OCCn1c(=S)[nH]c(=O)c2c1ccn2S(=O)(=O)c1ccccc1F",
    "human Plasma stability [%]": 98
  }
]

Return reported human Plasma stability. Input compound: COCCOCCN(C)C(=O)OCSc1nc(=O)c2[nH]ccc2n1CCOC(C)C
100

Return reported human Plasma stability. Input compound: CC(C)OCCn1c(=S)[nH]c(=O)c2c1ccn2COC(=O)[C@@H]1CCC(=O)N1
0

Return reported human Plasma stability. Input compound: CC(C)OCCn1c(=S)[nH]c(=O)c2c1ccn2COC(=O)CCNC(=O)[C@@H](NC(=O)OC(C)(C)C)C(C)C
99

###

- ASSAY_REMARKS: Stability in Simulated Gastric Fluid (SGF)
- Format: in vitro ADME
- Parameters: key: % parent compound remaining relative to 0-minute sample
- CONDITION_DETAILS: % remaining at 1 h in simulated gastric fluid
So basically, if SGF comes in under 90 % remaining it's MET, and if it's 90 % remaining or more it's NOT MET.

Some solved entries appear below for comparison.
[
  {
    "COMPOUND": "CCOC(=O)N1CCCC1C(=O)NCCCCC(=O)OCn1ccc2c1c(=O)[nH]c(=S)n2CCOC(C)C.O=C(O)C(F)(F)F (stereo not drawn)",
    "CAT": "MET"
  },
  {
    "COMPOUND": "CC(C)OCCn1c(=S)[nH]c(=O)c2c1ccn2COC(=O)CCNC(=O)[C@H](CO)NC(=O)OC(C)(C)C.O=C(O)C(F)(F)F",
    "CAT": "MET"
  }
]

Hi there! Is SGF for CC(C)OCCn1c(=S)[nH]c(=O)c2c1ccn2COC(=O)CCCCNC(=O)[C@@H](N)CCc1ccccc1.O=C(O)C(F)(F)F below 90 % remaining, do you know?
NOT MET

###

- ASSAY_REMARKS: Caco-2 Permeability Assay
- Format: in vitro ADME, human
- CONDITION_DETAILS: human, Caco-2, pH 7.4, Caco-2 monolayer
So basically, if Papp at 90 min, 10 µM comes in under 1 ×10⁻⁶ cm/s it's true (1), and if it's 1 ×10⁻⁶ cm/s or more it's false (0).

Some solved entries appear below for comparison.
[
  {
    "SAMPLE_SMILES": "CC(C)OCCn1c(=S)[nH]c(=O)c2c1ccn2COC(=O)CCNC(=O)[C@@H](N)Cc1ccc(O)cc1.O=C(O)C(F)(F)F",
    "CAT": "true (1)"
  },
  {
    "SAMPLE_SMILES": "Cc1cccc(N(C)C(=O)OCSc2nc(=O)c3c(ccn3COC(=O)N(C)c3cccc(C)c3)n2CCOC(C)C)c1",
    "CAT": "false (0)"
  },
  {
    "SAMPLE_SMILES": "CC(C)OCCn1c(=S)[nH]c(=O)c2c1ccn2COC(=O)CCNC(=O)[C@H](CO)NC(=O)OC(C)(C)C.O=C(O)C(F)(F)F",
    "CAT": "true (1)"
  },
  {
    "SAMPLE_SMILES": "CC(C)OCCn1c(=S)[nH]c(=O)c2c1ccn2COC(=O)CCNC(=O)CN(C)C(=O)CNC(=O)OC(C)(C)C.O=C(O)C(F)(F)F",
    "CAT": "true (1)"
  },
  {
    "SAMPLE_SMILES": "CC[C@H](C)[C@H](N)C(=O)NCCCCC(=O)OCn1ccc2c1c(=O)[nH]c(=S)n2CCOC(C)C.O=C(O)C(F)(F)F",
    "CAT": "false (0)"
  }
]

Now for another entry.
Hi there! Is Papp at 90 min, 10 µM for CC(C)OCCn1c(SCOC(=O)N(C)c2ccccc2Cl)nc(=O)c2c1ccn2COC(=O)N(C)c1ccccc1Cl below 1 ×10⁻⁶ cm/s, do you know?
false (0)

###

- ASSAY_REMARKS: Stability in Simulated Gastric Fluid (SGF)
- Type: in vitro ADME
- Set-up: key: % parent compound remaining relative to 0-minute sample
- CONDITION_DETAILS: % remaining at 1 h in simulated gastric fluid; the 15th table
Below, each entry is listed with its recorded SGF.
Give the number; % remaining is assumed, so skip it.

[
  {
    "SAMPLE_SMILES": "CCOC(=O)OCSc1nc(=O)c2[nH]ccc2n1CCOC(C)C",
    "SGF [% remaining]": 100
  }
]

Return reported SGF. Input molecule: CC(C)OCCn1c(=S)[nH]c(=O)c2c1ccn2CO
98

Return reported SGF. Input molecule: CCCCNC(=O)OCSc1nc(=O)c2c(ccn2C(=O)NCCCC)n1CCOC(C)C
99

Return reported SGF. Input molecule: CC(C)NC(=O)OCSc1nc(=O)c2[nH]ccc2n1CCOC(C)C
99

Return reported SGF. Input molecule: COC(=O)OCSc1nc(=O)c2c(ccn2COC(=O)OC)n1CCOC(C)C
79

Return reported SGF. Input molecule: COC(=O)OCSc1nc(=O)c2c(ccn2CSc2nc(=O)c3[nH]ccc3n2CCOC(C)C)n1CCOC(C)C
47

###

- ASSAY_REMARKS: Caco-2 Permeability Assay
- Format: in vitro ADME, human
- CONDITION_DETAILS: human, Caco-2, pH 7.4
Below, each entry is listed with its recorded Papp at 90 min, 10 µM.
Give the number; ×10⁻⁶ cm/s is assumed, so skip it.

Before answering, review these 6 worked examples.
[
  {
    "COMPOUND": "CC(C)OCCn1c(SCOC(=O)CCCCOC(=O)CN)nc(=O)c2c1ccn2COC(=O)CCCCOC(=O)CN.O=C(O)C(F)(F)F.O=C(O)C(F)(F)F [Example 331]",
    "Papp at 90 min, 10 µM (×10⁻⁶ cm/s)": 3.68
  },
  {
    "COMPOUND": "CC(C)OCCn1c(=S)[nH]c(=O)c2c1ccn2COC(=O)CCCCOC(=O)[C@H](Cc1ccccc1)NC(=O)OC(C)(C)C [Example 334]",
    "Papp at 90 min, 10 µM (×10⁻⁶ cm/s)": 6.26
  },
  {
    "COMPOUND": "CC(C)OCCn1c(SCOC(=O)[C@@H](Cc2ccccc2)NC(=O)OC(C)(C)C)nc(=O)c2c1ccn2COC(=O)[C@@H](Cc1ccccc1)NC(=O)OC(C)(C)C [Example 306]",
    "Papp at 90 min, 10 µM (×10⁻⁶ cm/s)": 3.8
  },
  {
    "COMPOUND": "CC(C)OCCn1c(SCO)nc(=O)c2[nH]ccc21 [Example 336]",
    "Papp at 90 min, 10 µM (×10⁻⁶ cm/s)": 1.82
  },
  {
    "COMPOUND": "CC(C)OCCn1c(=S)[nH]c(=O)c2c1ccn2COC(=O)[C@@H](Cc1ccccc1)NC(=O)OC(C)(C)C [Example 305]",
    "Papp at 90 min, 10 µM (×10⁻⁶ cm/s)": 3.84
  },
  {
    "COMPOUND": "CC(C)OCCn1c(=S)[nH]c(=O)c2c1ccn2COC(=O)CCCCOC(=O)[C@@H](N)Cc1ccccc1.O=C(O)C(F)(F)F [Example 340]",
    "Papp at 90 min, 10 µM (×10⁻⁶ cm/s)": 0.644
  }
]

Return reported Papp at 90 min, 10 µM. Input compound: CC(C)OCCn1c(=S)[nH]c(=O)c2c1ccn2COC(=O)[C@H](Cc1ccccc1)NC(=O)OC(C)(C)C [Example 302]
4.48

Return reported Papp at 90 min, 10 µM. Input compound: CC(C)OCCn1c(=S)[nH]c(=O)c2c1ccn2COC(=O)[C@@H](N)C(C)C.O=C(O)C(F)(F)F [Example 296]
1.18

Return reported Papp at 90 min, 10 µM. Input compound: CC(C)C[C@@H](NC(=O)OC(C)(C)C)C(=O)OCn1ccc2c1c(=O)[nH]c(=S)n2CCOC(C)C [Example 317]
0.093

Return reported Papp at 90 min, 10 µM. Input compound: CC(C)OCCn1c(=S)[nH]c(=O)c2c1ccn2COC(=O)CCCCOC(=O)[C@H](N)Cc1ccccc1.O=C(O)C(F)(F)F [Example 341]
0.259
